# Inhibition values compiled below
tested on: Acinetobacter baumannii; conditions: Concentration 300 ug.mL-1; ASSAY_TEST Inhibition of Bacterial Growth; detection method Absorption (OD600); MEDIA CAMHB; plate type 384well; NBS; CORNING #3640; time 18 hr
Description: Antibacterial activity against Acinetobacter baumannii ATCC 19606 (CO-ADD:GN_034); MIC in CAMBH media using NBS plates, by OD600
Hit rate of the full screen: of about 21,000 compounds, fewer than 10 showed an effect of 50% or more. The list is a sample of the results. Potency and affinity values are given separately.
Report the value in % with no unit label.

Here are 5 molecules together with their reported answers.
O=C(Nc1ncccc1O)c1cnns1	5.13
CC(O)(CN)C(F)(F)F (stereo not drawn)	-3.1
CC(=O)c1c(C)[nH]c(C(=O)OCC(=O)N(C)C)c1C	5.39
CCN(CC)C(=O)NCC[S+]([O-])C(C)(C)C (stereo not drawn)	4.98
CNC(=O)c1cnc(OCC(F)(F)F)c(Cl)c1	1.45

--- query ---
In one line, give reported Inhibition of the entry CCC(N)C(=O)N1CCOCC1 (stereo not drawn) .
3.92

Data provenance is ChEMBL document CHEMBL4513160.
